- Tested on: Mycobacterium tuberculosis
- Experiment description: Cornell M. t heat shock assay; further: in the data most compounds retested in dose-response had high values
- Assay type: functional, organism-based
- Parameters: dose or concentration left out as unconfirmed
About 950 (1.4%) of roughly 69,000 compounds showed an effect of 50% or more. The list comes from a sample in which strong results are over-represented; it also holds close analogues and randomly drawn compounds.
Exercise: state measured Percent Effect for each of the compounds provided.
Quick note: give the figure in %, leave out the unit.

Prompt line: Name the recorded Percent Effect of the item c1cc(-c2nc3c(c(NCCc4c[nH]cn4)n2)CCNCC3)ccn1 in your answer.
Response line: -32.96

Prompt line: Name the recorded Percent Effect of the item Cl.Fc1cccc(CN2CCC(c3cc4ncccc4cn3)CC2)c1F in your answer.
Response line: 102.4

Prompt line: Name the recorded Percent Effect of the item Fc1cccc(CN2CCC(c3noc(-c4cnccn4)n3)CC2)c1F in your answer.
Response line: -19.36

Prompt line: Name the recorded Percent Effect of the item O=C(CN1CCOC(CNc2cccnn2)C1)NCc1cccs1 (centres undefined) in your answer.
Response line: 104.8

Prompt line: Name the recorded Percent Effect of the item c1cnnc(NCC2CN(CCN3CCCCC3)CCO2)c1 (centres undefined) in your answer.
Response line: 4.077

Prompt line: Name the recorded Percent Effect of the item O=C(CN1CC(c2nc(C3CC3)no2)C1)NCc1ccc(F)cc1.O=C(O)C(=O)O in your answer.
Response line: -19.44

Prompt line: Name the recorded Percent Effect of the item c1ccc(-c2nc3c(c(NCc4n[nH]c5c4CCC5)n2)CCNC3)cc1 in your answer.
Response line: 105.2

Prompt line: Name the recorded Percent Effect of the item CCOc1ccc(CN2CCc3nc4ccsc4c(=O)n3CC2)cc1.Cl in your answer.
Response line: 16.23

Prompt line: Name the recorded Percent Effect of the item Fc1cccc(CN2CCC(c3n[nH]c4ncccc34)CC2)c1F in your answer.
Response line: -15.12

Prompt line: Name the recorded Percent Effect of the item Cc1nc2c(Nc3ccc(C#N)cc3)nc(N)nc2n1C in your answer.
Response line: 5.734

Prompt line: Name the recorded Percent Effect of the item Cc1ccc(CN2CCC[C@]3(C(=O)O)CN(C)C[C@@H]3C2)s1.O=C(O)C(F)(F)F.O=C(O)C(F)(F)F in your answer.
Response line: 10.8

Prompt line: Name the recorded Percent Effect of the item c1coc(-c2nc3c(c(NCc4n[nH]c5c4CCC5)n2)CCNCC3)c1 in your answer.
Response line: -50.31

Prompt line: Name the recorded Percent Effect of the item O=C(CN1CCOC(Cn2cccn2)C1)NCc1cccs1 (centres undefined) in your answer.
Response line: -0.5047

Prompt line: Name the recorded Percent Effect of the item Fc1cc(F)cc(CN2CCC(c3cc4ncccc4cn3)CC2)c1 in your answer.
Response line: 17.06

Prompt line: Name the recorded Percent Effect of the item COc1cccc([C@H]2CN(C(C)=O)[C@@H]3CCN(Cc4ccsc4)C[C@H]23)c1.Cl in your answer.
Response line: -8.302

Prompt line: Name the recorded Percent Effect of the item Cc1cc(C(=O)NC2CCN(CC(N)=O)CC2)nn1C(C)(C)C in your answer.
Response line: 61.29

Prompt line: Name the recorded Percent Effect of the item CN(CC(=O)N(C)C1CCCCC1)Cc1nc2ccccc2c(=O)[nH]1 in your answer.
Response line: 97.32

Prompt line: Name the recorded Percent Effect of the item CC1=C(C#N)C(=O)NC(=O)/C1=C\c1c(C)nn(-c2ccc(Cl)cc2)c1O in your answer.
Response line: -14.1

Prompt line: Name the recorded Percent Effect of the item Cc1nc2c(Nc3cccc(C#N)c3)nc(N)nc2n1C in your answer.
Response line: 102.2

Prompt line: Name the recorded Percent Effect of the item COc1ccc(CNC(=O)Cn2ccc3sccc3c2=O)cc1 in your answer.
Response line: -0.6252

Prompt line: Name the recorded Percent Effect of the item CCN1C(=O)CC(N(C)Cc2nc3ccccc3c(=O)[nH]2)C1=O (centres undefined) in your answer.
Response line: 16.93

Prompt line: Name the recorded Percent Effect of the item Cc1nc2cc(=O)[nH]n2c(C)c1CC(=O)NC(C)C in your answer.
Response line: -0.1861

Prompt line: Name the recorded Percent Effect of the item Cc1oncc1C(=O)N1CC[C@@H]2[C@@H]1CC(=O)N2Cc1cccnc1.O=C(O)C(F)(F)F in your answer.
Response line: 26.27

Prompt line: Name the recorded Percent Effect of the item Cc1cc2c(=O)n3c(nc2s1)CCN(Cc1c[nH]cn1)CC3.Cl in your answer.
Response line: -21.28

Prompt line: Name the recorded Percent Effect of the item c1nc(CCNc2nc(C3CC3)nc3c2CCNCC3)c[nH]1 in your answer.
Response line: -37.66

Prompt line: Name the recorded Percent Effect of the item Cc1ccc(CN(C)C(=O)c2n[nH]c(N)c2-c2ccccc2)o1 in your answer.
Response line: -6.81

Prompt line: Name the recorded Percent Effect of the item Cc1ncc2c(n1)CCCC2NC(=O)c1cnn(Cc2ccccc2)c1 (centres undefined) in your answer.
Response line: -15.56

Prompt line: Name the recorded Percent Effect of the item c1ccc(-c2nc3c(c(NCc4nnc5n4CCC5)n2)CCNC3)cc1 in your answer.
Response line: -1.823

Prompt line: Name the recorded Percent Effect of the item CN(Cc1nc2ccccc2c(=O)[nH]1)C1CC(=O)N(C2CC2)C1=O (centres undefined) in your answer.
Response line: 51.11

Prompt line: Name the recorded Percent Effect of the item O=C(CN1CCOC(CNc2cccnn2)C1)N1CCCCC1 (centres undefined) in your answer.
Response line: 57.16

Prompt line: Name the recorded Percent Effect of the item Cc1c[nH]nc1C1CCCN1Cc1ncc[nH]1.O=CO (centres undefined) in your answer.
Response line: -1.504

Prompt line: Name the recorded Percent Effect of the item CN(C)CCNC(=O)c1ccc2ccc(N(C)CC3CC3)n2c1 in your answer.
Response line: -34.83

Prompt line: Name the recorded Percent Effect of the item CN(CC(=O)N(C)C1CCCCC1)Cc1nc2c(cnn2C)c(=O)[nH]1 in your answer.
Response line: -5.559

Prompt line: Name the recorded Percent Effect of the item CN1C(=O)CC(N(C)Cc2nc3ccccc3c(=O)[nH]2)C1=O (centres undefined) in your answer.
Response line: 15.14

Prompt line: Name the recorded Percent Effect of the item COCCNC(=O)c1ccc2ccc(N(C)CC3CC3)n2c1 in your answer.
Response line: 24.26

Prompt line: Name the recorded Percent Effect of the item c1ccc(-c2nc3c(c(NCCc4c[nH]cn4)n2)CCNC3)cc1 in your answer.
Response line: 103.9

Prompt line: Name the recorded Percent Effect of the item Cc1ccc(N2CCCC3(COCCN(c4ncccn4)C3)C2)nn1.O=C(O)C(F)(F)F (centres undefined) in your answer.
Response line: -5.221

Prompt line: Name the recorded Percent Effect of the item Cc1ncc2c(n1)CCCC2NC(=O)c1ccncc1 (centres undefined) in your answer.
Response line: -6.944

Prompt line: Name the recorded Percent Effect of the item O=C(NCC1CC1)[C@H]1C[C@@H]2CCN(Cc3ccc4c(c3)OCO4)C[C@@H]2O1.O=C(O)C(F)(F)F in your answer.
Response line: -28.42

Prompt line: Name the recorded Percent Effect of the item Fc1cccc(CN2CCC(c3noc(-c4ccccn4)n3)CC2)c1F in your answer.
Response line: 12.47

Prompt line: Name the recorded Percent Effect of the item Cc1ccc(CN2CC[C@@H]3O[C@@H](C(=O)N4CCN(C)CC4)C[C@@H]32)cc1.O=C(O)C(F)(F)F.O=C(O)C(F)(F)F in your answer.
Response line: 25.47

Prompt line: Name the recorded Percent Effect of the item Cc1noc(C)c1-c1nc(C2CCCNC2)ccc1CO.Cl.Cl (centres undefined) in your answer.
Response line: 6.462

Prompt line: Name the recorded Percent Effect of the item CN(Cc1nc2ccccc2c(=O)[nH]1)C[C@@H]1CCCN2CCCC[C@H]12 in your answer.
Response line: 44.63

Prompt line: Name the recorded Percent Effect of the item O=C(CN1CCOC(CNc2cccnn2)C1)NCc1ccccn1 (centres undefined) in your answer.
Response line: -12.01

src = ChEMBL document CHEMBL3988442
